Molecular target: hAM1R (human, UniProt Q16602)
Assay: cell-based or functional assay
Numbered stars: 1 amine (or outer) side, 2 acyl side, 3 side chain; on linkers, the order of the positions; unused ones are H or OH. Bridge positions count the residues as written; N and C are the ends. Square brackets hold non-standard residues; d marks the D form. Ends that are not written are not given here. * marks the point of attachment. C20 diacid = O=C(O)CCCCCCCCCCCCCCCCCCC(=O)*; γGlu = O=C(O)[C@H](CCC(=O)[*:2])N[*:1]; Hyp = O=C(O)[C@@H]1C[C@@H](O)CN1; Cit = NC(=O)NCCC[C@H](N)C(=O)O
Label scheme for hAM1R EC50 (cAMP): lower than 1 µM is Not satisfied, 1 µM and above is Satisfied.

Some solved cases for reference:
BINDER	LABEL_VALUE
{C20 diacid-γGlu}-KCNTATCTVDRLAHQIYQFTDKDKDNVAPPTNVGSNG[Hyp]-NH2 (disulfide 2-7 (inferred); ends not checked) [SEQ ID NO: 4]	Satisfied
GCRFGTCTVQ[Cit]LAHQIYQFTDKDKDNVAPRTNVSPQGY-NH2 (disulfide 2-7 (inferred); ends not checked) [SEQ ID NO: 278]	Not satisfied
KCNTATCTVQWLAHQIYQFTDKDKDNVAPPTNVGSNG[Hyp]-NH2 (disulfide 2-7 (inferred); ends not checked) [SEQ ID NO: 330]	Satisfied
KCNTATCTVQRLAEQIYQFTDKDKDNVAPPTNVGSNG[Hyp]-NH2 (disulfide 2-7 (inferred); not fully specified (N-terminus); ends not checked; also: N-terminal Lys carries two C20DA-OEG-γGlu-OEG arms ((...)2-K)) [SEQ ID NO: 233]	Satisfied
GCRFGTCTVQ[Cit]LAHFLYQFTDKDKDNVAPRTNVGPQGY-NH2 (disulfide 2-7 (inferred); ends not checked) [SEQ ID NO: 263]	Satisfied
GCRTGTCTVQWLAHQIYQFTDKDKDNVAPRSKVGPNG[Hyp]-NH2 (disulfide 2-7 (inferred); ends not checked) [SEQ ID NO: 347]	Satisfied
{C20 diacid-γGlu}-KCNTATCTVQRLAHQIEQFTDKDKDNVAPPTNVGSNG[Hyp]-NH2 (disulfide 2-7 (inferred); ends not checked) [SEQ ID NO: 110]	Satisfied
KCRFGTCTVQRLAHQIYQFTDKDKDNVAPRSKISPQT[Hyp]-NH2 (disulfide 2-7 (inferred); ends not checked) [SEQ ID NO: 205]	Satisfied
KCNTATCATQRLANFLVHSSNNFGAILPSTKVGSNGY [SEQ ID NO: 59]	Satisfied
GCRTGTCTVQRLAHQIYQFTDKFKDNVAPRSKISPQTW [SEQ ID NO: 184]	Satisfied

Dear colleague, could you confirm whether GCRFGTCTVQRLAHQIYQFTDKDKDNVAPRSNVSPQG[Hyp]-NH2 (disulfide 2-7 (inferred); ends not checked) [SEQ ID NO: 145] has hAM1R EC50 (cAMP) at or above 1 µM?
Satisfied

What do you get for GCRTGTCTVQ[Cit]LAHQIYQFTDKDKDNVAPRTNVSPNG[Hyp]-NH2 (disulfide 2-7 (inferred); ends not checked) [SEQ ID NO: 302] ?
Satisfied

What do you get for GCRTGTCTVQRLAHQIHQFTDKDKDNVAPRSKISPQT[Hyp]-NH2 (disulfide 2-7 (inferred); ends not checked) [SEQ ID NO: 228] ?
Satisfied

What do you get for {C20 diacid-γGlu}-GCRFGTCTVQRLANFLYQFTDKDKDNVAPRTNVGPQGY-NH2 (disulfide 2-7 (inferred); ends not checked) [SEQ ID NO: 386] ?
Not satisfied

What do you get for {C20 diacid-γGlu}-KCNFATCTVQRLAHQIYQFTDKDKDNVAPRTKVGSNGY-NH2 (disulfide 2-7 (inferred); ends not checked) [SEQ ID NO: 378] ?
Not satisfied

What do you get for KCNTATCTVQ[Cit]LAHQIYQATDKDKDNVAPPTNVGSNG[Hyp]-NH2 (disulfide 2-7 (inferred); ends not checked) [SEQ ID NO: 276] ?
Satisfied

What do you get for GCRTGTCTVQWLAHQIYQFTDKDKDNVAPRTNVSPNG[Hyp]-NH2 (disulfide 2-7 (inferred); ends not checked) [SEQ ID NO: 358] ?
Satisfied
